Hello, the source for this data is PubChem BioAssay (NCI), in case you need it.

# Tested on: HCC-2998 colon
# assayProcedure: NCI-60 one-dose screen, 48 h (100 = growth as untreated, 0 = no growth, -100 = all killed)
# conditionNotes: 10 µM unless noted
About 83,000 compounds went through this panel and 20% of them were active in at least one assay; those are over-represented in the sample as a whole.
// reported growth per item

- molecule: "COc1ccc(C2(SCCNCc3cc(N(C)C)ccn3)c3ccccc3C=Cc3ccccc32)cc1"
  growth [%]: -30.1
- molecule: "O=C(/C=C/c1ccc(O)c(O)c1)NC1CCOC1O (centres undefined)"
  growth [%]: 99.2
- molecule: "O=c1[nH]c2ccccc2cc1CSc1nccc(-c2ccc3ccccc3c2)n1"
  growth [%]: 83.5
- molecule: "CCOC(=O)c1ccc(Nc2nc(NN)nc(-c3ccc(F)cc3)c2C#N)cc1"
  growth [%]: 105
- molecule: "O=C(O)c1cccc(-c2ccc(/C=N/NC(=O)c3[nH]c4ccc(Br)cc4c3-c3ccccc3)s2)c1"
  growth [%]: 49.9
- molecule: "Cn1cc(-c2nnc(N)nc2-c2c[nH]c3ccc(F)cc23)c2cccnc21"
  growth [%]: 65.8
- molecule: "CN(C)CCCNC(=O)c1cc(NC(=O)c2cc(NC(=O)c3ccc(C#Cc4ccccc4)cc3)cn2C)cn1C"
  growth [%]: -90.7
- molecule: "NS(=O)(=O)c1ccc(-n2cc(-c3cccc(NC(=O)c4ccc(Cl)c(C(F)(F)F)c4)c3)nn2)cc1"
  growth [%]: 41.8
- molecule: "Cn1cc(-c2cc(N)n3nc(-c4cn(C)c5ccccc45)cc3n2)c2cc(Br)ccc21"
  growth [%]: -70.2
